Target: the molecule itself
Assay: SEC
recorded.endpoint: binding result

A2AR-G344ΔC (domain or fragment) MPIMGSSVYITVELAIAVLAILGNVLVCWAVWLNSNLQNVTNYFVVSLAAADIAVGVLAIPFAITISTGFCAACHGCLFIACFVLVLTQSSIFSLLAIAIDRYIAIRIPLRYNGLVTGTRAKGIIAICWVLSFAIGLTPMLGWNNCGQPKEGKNHSQGCGEGQVACLFEDVVPMNYMVYFNFFACVLVPLLLMLGVYLRIFLAARRQLKQMESQPLPGERARSTLQKEVHAAKSLAIIVGLFALCWLPLHIINCFTFFCPDCSHAPLWLMYLAIVLSHTNSVVNPFIYAYRIREFRQTFRKIIRSHVLRQQEPFKAAGTSARVLAAHGSDGEQVSLRLNGHPPG : binds
A2AR-G349ΔC (domain or fragment) MPIMGSSVYITVELAIAVLAILGNVLVCWAVWLNSNLQNVTNYFVVSLAAADIAVGVLAIPFAITISTGFCAACHGCLFIACFVLVLTQSSIFSLLAIAIDRYIAIRIPLRYNGLVTGTRAKGIIAICWVLSFAIGLTPMLGWNNCGQPKEGKNHSQGCGEGQVACLFEDVVPMNYMVYFNFFACVLVPLLLMLGVYLRIFLAARRQLKQMESQPLPGERARSTLQKEVHAAKSLAIIVGLFALCWLPLHIINCFTFFCPDCSHAPLWLMYLAIVLSHTNSVVNPFIYAYRIREFRQTFRKIIRSHVLRQQEPFKAAGTSARVLAAHGSDGEQVSLRLNGHPPGVWANG : binds
A2AR-P395ΔC (domain or fragment) MPIMGSSVYITVELAIAVLAILGNVLVCWAVWLNSNLQNVTNYFVVSLAAADIAVGVLAIPFAITISTGFCAACHGCLFIACFVLVLTQSSIFSLLAIAIDRYIAIRIPLRYNGLVTGTRAKGIIAICWVLSFAIGLTPMLGWNNCGQPKEGKNHSQGCGEGQVACLFEDVVPMNYMVYFNFFACVLVPLLLMLGVYLRIFLAARRQLKQMESQPLPGERARSTLQKEVHAAKSLAIIVGLFALCWLPLHIINCFTFFCPDCSHAPLWLMYLAIVLSHTNSVVNPFIYAYRIREFRQTFRKIIRSHVLRQQEPFKAAGTSARVLAAHGSDGEQVSLRLNGHPPGVWANGSAPHPERRPNGYALGLVSGGSAQESQGNTGLPDVELLSHELKGVCP : binds
A2AR-V334ΔC (domain or fragment) MPIMGSSVYITVELAIAVLAILGNVLVCWAVWLNSNLQNVTNYFVVSLAAADIAVGVLAIPFAITISTGFCAACHGCLFIACFVLVLTQSSIFSLLAIAIDRYIAIRIPLRYNGLVTGTRAKGIIAICWVLSFAIGLTPMLGWNNCGQPKEGKNHSQGCGEGQVACLFEDVVPMNYMVYFNFFACVLVPLLLMLGVYLRIFLAARRQLKQMESQPLPGERARSTLQKEVHAAKSLAIIVGLFALCWLPLHIINCFTFFCPDCSHAPLWLMYLAIVLSHTNSVVNPFIYAYRIREFRQTFRKIIRSHVLRQQEPFKAAGTSARVLAAHGSDGEQV : binds

Values were extracted from paper doi:10.1101/2020.12.21.423144.
